System: DU-145
Assay: Cytotoxicity against Homo sapiens (human) DU145 cells assessed as cell growth at 10 uM after 48 hr by SRB assay relative to control
Format: functional
Conditions: DU-145, 48 h, read-out: Activity
Recorded measurements of growth at 10 µM, one per entry
Give just the number in %; leave the unit off.

> print(dat)
                                chem.smiles  measured.property  unit.symbol  numeric.value
1  COc1ccccc1CNC(=O)CSc1nc2ccccc2c2nc(=O)c(-c3ccccc3)nn12    growth at 10 µM            %           0.48
2  O=C(CSc1nc2ccccc2c2nc(=O)c(-c3ccccc3)nn12)NCc1ccccc1    growth at 10 µM            %           21.8
3  COc1ccc(-c2nn3c(SCC(=O)Nc4ccccc4Cl)nc4ccccc4c3nc2=O)cc1    growth at 10 µM            %          -17.9

Need growth at 10 µM, item O=C(CSc1nc2ccccc2c2nc(=O)c(-c3ccccc3)nn12)NCc1ccccc1F 35.9
